assay: Half life in rat liver microsomes at 0.1 uM preincubated for 10 mins followed by NADPH addition and measured up to 60 mins by LC-MS/MS analysis; type: ADME, Microsome
measured.metric: half-life at 0.1 µM (min)
The figure you give is taken to be in min; do not add the unit.

Value lookup for half-life at 0.1 µM; key = CCS(=O)(=O)Nc1ccc(Oc2ccc(F)cc2F)c(-c2cc(C)c3c(=O)[nH]ccn23)c1
7.9

Same again, this time with Cc1cc(-c2cc(NS(C)(=O)=O)ccc2Oc2ccc(F)cc2F)n2cc[nH]c(=O)c12
6.4

Next compound up: CCS(=O)(=O)Cc1cnc(Oc2ccc(F)cc2F)c(-c2cc(C)c3c(=O)[nH]ccn23)c1
32.4

Same for CCS(=O)(=O)Cc1ccc(Oc2ccc(F)cc2F)c(-c2cc(C)c3c(=O)[nH]ccn23)c1
33.9

Request: Cc1cc(-c2cc(NS(C)(=O)=O)ccc2Oc2ccccc2)n2cc[nH]c(=O)c12
0.7

Query Cc1cc(-c2cc(CS(C)(=O)=O)ccc2Oc2ccc(F)cc2F)n2cc[nH]c(=O)c12 next
18.8

One more compound: Cc1cc(-c2cc(CS(C)(=O)=O)cnc2Oc2ccc(F)cc2F)n2cc[nH]c(=O)c12
32.5

Again, but for Cc1cc(-c2cc(NS(C)(=O)=O)ccc2OC2CCCCC2)n2cc[nH]c(=O)c12
0.9

----------
What Microsomal intrinsic clearance was measured for each of the following?
test: Clearance in human liver microsomes at 0.1 uM preincubated for 10 mins followed by NADPH addition and measured up to 60 mins by LC-MS/MS analysis; assay type: ADME, Microsome; details: 1 h
Value expressed in mL/min/g; do not type the unit.

Which value of Microsomal intrinsic clearance has been reported for Cc1cc(-c2cc(NS(C)(=O)=O)ccc2Oc2ccc(F)cc2F)n2cc[nH]c(=O)c12 in the records?
36.2

Cool, now CCS(=O)(=O)Cc1ccc(Oc2ccc(F)cc2F)c(-c2cc(C)c3c(=O)[nH]ccn23)c1
46

Quick one: CCS(=O)(=O)Nc1ccc(Oc2ccc(F)cc2F)c(-c2cc(C)c3c(=O)[nH]ccn23)c1
62

Now give it for CCS(=O)(=O)Cc1cnc(Oc2ccc(F)cc2F)c(-c2cc(C)c3c(=O)[nH]ccn23)c1 too.
12.2

Param item: Cc1cc(-c2cc(NS(C)(=O)=O)ccc2Oc2ccccc2)n2cc[nH]c(=O)c12
74

Cc1cc(-c2cc(CS(C)(=O)=O)cnc2Oc2ccc(F)cc2F)n2cc[nH]c(=O)c12 , same question.
26.1

Same again, this time with Cc1cc(-c2cc(NS(C)(=O)=O)ccc2OC2CCCCC2)n2cc[nH]c(=O)c12
752

Same for Cc1cc(-c2cc(CS(C)(=O)=O)ccc2Oc2ccc(F)cc2F)n2cc[nH]c(=O)c12
115

----------
Task for the reader: assign each of the following compounds its reported pIC50.
test system: Kasumi 1; experiment: Antiproliferative activity against human Kasumi-1 cells assessed as reduction in cell viability measured after 72 hrs by Celltitre-glo luminescence assay; type: functional, cell-based; settings: Kasumi 1, 72 h
pIC50 is a log-scale quantity: -log10 of the concentration expressed in molar.

Record request: pIC50 value, item CCS(=O)(=O)Nc1ccc(Oc2ccc(F)cc2F)c(-c2cn(C)c(=O)c3[nH]ccc23)c1
8.20

# repeat for CCS(=O)(=O)Cc1cnc(Oc2ccc(F)cc2F)c(-c2cc(C)c3c(=O)[nH]ccn23)c1
8.13

One more compound: Cc1sc2c(c1C)C(c1ccc(Cl)cc1)=N[C@@H](CC(=O)Nc1ccc(O)cc1)c1nnc(C)n1-2
6.87

----------
experiment: Clearance in rat liver microsomes at 0.1 uM preincubated for 10 mins followed by NADPH addition and measured up to 60 mins by LC-MS/MS analysis; assay type: ADME, Microsome; settings: 1 h
measured.metric: Intrinsic clearance (mL/min/g)
Field: numeric (mL/min/g). Do not append units.

Look up Intrinsic clearance for this compound: Cc1cc(-c2cc(NS(C)(=O)=O)ccc2Oc2ccc(F)cc2F)n2cc[nH]c(=O)c12
327

Lookup Cc1cc(-c2cc(NS(C)(=O)=O)ccc2Oc2ccccc2)n2cc[nH]c(=O)c12
3039

Field entry: Cc1cc(-c2cc(CS(C)(=O)=O)cnc2Oc2ccc(F)cc2F)n2cc[nH]c(=O)c12
64.6

Proceed to Cc1cc(-c2cc(CS(C)(=O)=O)ccc2Oc2ccc(F)cc2F)n2cc[nH]c(=O)c12
112

Then CCS(=O)(=O)Cc1cnc(Oc2ccc(F)cc2F)c(-c2cc(C)c3c(=O)[nH]ccn23)c1 ?
64.8

Follow-up item: Cc1cc(-c2cc(NS(C)(=O)=O)ccc2OC2CCCCC2)n2cc[nH]c(=O)c12
2137

# iterate: CCS(=O)(=O)Cc1ccc(Oc2ccc(F)cc2F)c(-c2cc(C)c3c(=O)[nH]ccn23)c1
61.9

Field entry: CCS(=O)(=O)Nc1ccc(Oc2ccc(F)cc2F)c(-c2cc(C)c3c(=O)[nH]ccn23)c1
264

----------
assay: Oral bioavailability in mouse at 3 mg/kg by LC-MS/MS analysis; assay type: ADME, organism-based; settings: in vivo
measured.metric: bioavailability (%)
// note: answer is a bare numeric in %

Query (compound): CCS(=O)(=O)Cc1cnc(Oc2ccc(F)cc2F)c(-c2cc(C)c3c(=O)[nH]ccn23)c1 ; field requested: bioavailability
52.3

----------
Provide the recorded pIC50 for the entries that follow.
biological target: Bromodomain-containing protein 4 (Homo sapiens, UniProt O60885); assay: Inhibition of SGRG-K(Ac)-GG-K(Ac)-GLG-K(Ac)-GGA-K(Ac)-RHRKVGG-K-Biotin binding to N-terminal His6-tagged BRD4 bromodomain 1 (49 to 170 residues) (unknown origin) expressed in Escherichia coli BL21 (DE3) preincubated for 15 mins followed by biotin-labeled H4 peptide addition and measured after 10 mins by Alphascreen assay
// scale note: pIC50 = -log10(conc_M); give the bare number

Entry Cc1cc(-c2cc(NS(C)(=O)=O)ccc2OCC2CC2)n2cc[nH]c(=O)c12 : reported pIC50 = ?
7.10

Also Cc1cc(-c2cc(NS(C)(=O)=O)ccc2Oc2ccccn2)n2cc[nH]c(=O)c12 , if possible.
7.56

# repeat for Cc1cc(-c2ccccc2Oc2ccccc2)n2cc[nH]c(=O)c12
5.35

Then this compound: Cc1cc(-c2cc(CS(C)(=O)=O)cnc2Oc2ccc(F)cc2F)n2cc[nH]c(=O)c12
8.13

----------
Please respond with reported IC50 for every item in the list.
target: Bromodomain-containing protein 4 (Homo sapiens, UniProt O60885); assay: Inhibition of SGRG-K(Ac)-GG-K(Ac)-GLG-K(Ac)-GGA-K(Ac)-RHRKVGG-K-Biotin binding to N-terminal His6-tagged BRD4 bromodomain 1 (49 to 170 residues) (unknown origin) expressed in Escherichia coli BL21 (DE3) preincubated for 15 mins followed by biotin-labeled H4 peptide addition and measured after 10 mins by Alphascreen assay
Provide only the numeric value, understood in µM.

Reported IC50 for Cc1cc(-c2cc(S(=O)(=O)NC(C)(C)C)cnc2Oc2ccc(F)cc2F)n2cc[nH]c(=O)c12 : what is it?
0.788

Check Cc1cc(-c2cc(NS(C)(=O)=O)ccc2Oc2ccc(Cl)cc2)n2cc[nH]c(=O)c12 too.
0.128

Now the same for CC(=O)Nc1ccc(Oc2ccc(F)cc2F)c(-c2cc(C)c3c(=O)[nH]ccn23)c1
0.219

// same read-out, input: Cc1cc(-c2cc(S(=O)(=O)N(C)C)cnc2Oc2ccc(F)cc2F)n2cc[nH]c(=O)c12
0.74

Field entry: Cc1cc(-c2cc(NS(C)(=O)=O)ccc2Nc2ccccc2)n2cc[nH]c(=O)c12
0.068

Same read-out for CCS(=O)(=O)Cc1ccc(Oc2ccc(F)cc2F)c(-c2cc(C)c3c(=O)[nH]ccn23)c1 ?
0.0047

Next up: Cc1cc(-c2cc(S(=O)(=O)N(C)C)ccc2Oc2ccc(F)cc2F)n2cc[nH]c(=O)c12
0.198

----------
Please respond with reported pIC50 for every item in the list.
tested on: MV4-11; test: Antiproliferative activity against human MV4-11 cells assessed as reduction in cell viability measured after 72 hrs by Celltitre-glo luminescence assay; type: functional, cell-based; conditions: MV4-11, 72 h
Just the number, please; pIC50 means minus log10 of the concentration in mol/L.

Please look up its pIC50: CCS(=O)(=O)Nc1ccc(Oc2ccc(F)cc2F)c(-c2cc(C)c3c(=O)[nH]ccn23)c1
7.84

What do we get for Cc1cc(-c2cc(NS(C)(=O)=O)ccc2Oc2ccccn2)n2cc[nH]c(=O)c12 ?
6.68

Can you check Cc1sc2c(c1C)C(c1ccc(Cl)cc1)=N[C@@H](CC(=O)Nc1ccc(O)cc1)c1nnc(C)n1-2 [BIRABRESIB] next?
7.33

Same question, Cc1cc(-c2cc(NS(C)(=O)=O)ccc2OC2CCCCC2)n2cc[nH]c(=O)c12 this time
8.31

What about this compound? Cc1cc(-c2cc(CS(C)(=O)=O)cnc2Oc2ccc(F)cc2F)n2cc[nH]c(=O)c12
7.85

Same thing, different compound: Cc1cc(-c2cc(NS(C)(=O)=O)cnc2Oc2ccc(F)cc2F)n2cc[nH]c(=O)c12
6.27

Next up: CCS(=O)(=O)Cc1ccc(Oc2ccc(F)cc2F)c(-c2cc(C)c3c(=O)[nH]ccn23)c1
8.19

Also need Cc1cc(-c2cc(NS(C)(=O)=O)ccc2Nc2ccccc2)n2cc[nH]c(=O)c12 , thanks.
6.59

What would you report for Cc1cc(-c2cc(NS(C)(=O)=O)ccc2Oc2ccc(F)cc2F)n2cc[nH]c(=O)c12 ?
7.44

Please give the result for Cc1cc(-c2cc(CS(C)(=O)=O)ccc2Oc2ccc(F)cc2F)n2cc[nH]c(=O)c12 too.
7.83

Then this compound: Cc1cc(-c2cc(NS(C)(=O)=O)ccc2OCC2CC2)n2cc[nH]c(=O)c12
6.73
